CC50 for assorted compounds
Assay: Cytotoxicity against human HPLF cells after 24 hrs
Format: cell-based
Settings: hplf, 24 h

Known results for compounds:
>  <compound-smiles>
COc1cc(/C=C2\CCC/C(=C\c3cccc([N+](=O)[O-])c3)C2=O)cc(OC)c1OC

>  <assay-value>
> 400 µM

$$$$
>  <compound-smiles>
COc1cc(OC)c(OC)cc1/C=C1\CCC/C(=C\c2ccc([N+](=O)[O-])cc2)C1=O

>  <assay-value>
> 400 µM

$$$$

Given CN(C)c1ccc(/C=C2\CCC/C(=C\c3ccccc3[N+](=O)[O-])C2=O)cc1 , state its recorded CC50.
> 400 µM

Reference source for all entries: ChEMBL document CHEMBL1157649
